In this section, each of the binders is paired with its reported kon.
# Tested System: T1, Extracellular domain of cyno PD1 (cPD1-ECD) (Macaca fascicularis (cynomolgus))
# T1 construct: Expressed with a hexahistidine tag or as Fc fusion; also called cynoPD1-ECD; cynoPD-1-ECD
# T1 chain: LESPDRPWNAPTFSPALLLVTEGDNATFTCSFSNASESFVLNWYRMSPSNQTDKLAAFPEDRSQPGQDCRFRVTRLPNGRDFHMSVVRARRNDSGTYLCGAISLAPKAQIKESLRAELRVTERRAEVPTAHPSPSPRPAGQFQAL
# Test Name: SPR ProteOn, cynoPD1-ECD; RANGE high replicate
// units = M⁻¹ s⁻¹; emit number, no label

Answered examples (3):
PD1B162 (antibody, human IgG2, kappa, V domains shown, IgG2sigma/kappa; VH 42, VL 52; also called PD1H131/PD1L67) VH: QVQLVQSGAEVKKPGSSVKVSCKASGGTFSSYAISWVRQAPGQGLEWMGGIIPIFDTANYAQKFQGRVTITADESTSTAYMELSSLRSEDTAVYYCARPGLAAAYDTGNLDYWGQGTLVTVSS VL: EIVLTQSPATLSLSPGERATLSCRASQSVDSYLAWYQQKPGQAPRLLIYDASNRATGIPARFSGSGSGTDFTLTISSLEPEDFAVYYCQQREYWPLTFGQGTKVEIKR	389000
PD1B70 (antibody, V domains shown, Tested as IgG2sigma/kappa; also called PD1H107/PH9L3) VH: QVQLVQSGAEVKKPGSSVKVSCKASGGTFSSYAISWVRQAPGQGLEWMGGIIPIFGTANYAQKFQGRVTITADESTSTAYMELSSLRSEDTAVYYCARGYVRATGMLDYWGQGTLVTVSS VL: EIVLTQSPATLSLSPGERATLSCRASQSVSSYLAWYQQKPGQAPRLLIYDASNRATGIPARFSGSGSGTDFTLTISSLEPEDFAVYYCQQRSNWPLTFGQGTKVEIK	225000
PD1B164 (antibody, human IgG2, kappa, V domains shown, IgG2sigma/kappa; VH 42, VL 53; also called PD1H131/PD1L71) VH: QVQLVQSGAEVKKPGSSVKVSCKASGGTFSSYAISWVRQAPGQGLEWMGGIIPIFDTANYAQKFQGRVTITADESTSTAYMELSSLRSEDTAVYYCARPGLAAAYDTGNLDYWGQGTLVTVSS VL: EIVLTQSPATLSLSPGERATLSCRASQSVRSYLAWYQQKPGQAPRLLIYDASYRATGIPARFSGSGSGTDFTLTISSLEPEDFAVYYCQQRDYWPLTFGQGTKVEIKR	267000

Data request, read-out kon, for PD1B160 (antibody, human IgG2, kappa, V domains shown, IgG2sigma/kappa; VH 42, VL 51; also called PD1H131/PD1L101) VH: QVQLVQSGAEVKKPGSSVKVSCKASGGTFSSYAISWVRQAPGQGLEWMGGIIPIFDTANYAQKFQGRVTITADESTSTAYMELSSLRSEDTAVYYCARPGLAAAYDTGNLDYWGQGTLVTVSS VL: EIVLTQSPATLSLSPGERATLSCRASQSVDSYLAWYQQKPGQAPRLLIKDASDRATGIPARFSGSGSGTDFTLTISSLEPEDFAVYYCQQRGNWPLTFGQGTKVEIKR
317000

The reported measurements were obtained from patent US20210277110A1.
